Each entry below carries its recorded liver microsomal stability, Dog (%).
Experiment: Liver microsomal stability (dog)
Format: in vitro ADME
Settings: amount of substrate remaining; 1 μM, 0.25 mg/mL microsomes, 37° C., 30 minutes
Measurement Name: liver microsomal stability, Dog (%)

• N#CC(C#N)=NNc1ccc2nc(NC(=O)c3cnccn3)sc2c1 [Compound 92] = 74.7%
• Cn1cc2c(-c3ccc(NN=C(C#N)C#N)cc3)cccc2n1 [Compound 55] = 85.6%
• N#CC(C#N)=NNc1cnc2[nH]ccc2c1 [Compound 72] = 84.8%
• COc1cnc(-c2ccc(NN=C(C#N)C#N)cc2)nc1 [Compound 8] = 96%
• Cc1ncc(-c2ccc(NN=C(C#N)C#N)cc2)s1 [Compound 11] = 79.6%
• N#CC(C#N)=NNc1ccc(-n2cccn2)cc1 [Compound 35] = 24.2%
• Cc1ccnc(-c2ccc(NN=C(C#N)C#N)c(F)c2)n1 [Compound 37] = 61%
• N#CC(C#N)=NNc1cnc2[nH]cc(Cl)c2c1 [Compound 83] = 31.9%
• Cc1cncc(-c2nc3ccc(NN=C(C#N)C#N)cc3s2)c1 [Compound 110] = 60.2%
• COc1cc(-c2nccc(C)n2)ccc1NN=C(C#N)C#N [Compound 42] = 30.7%
• N#CC(C#N)=NNc1ccc2[nH]c(=O)sc2c1 [Compound 134] = >100%
• N#CC(C#N)=NNc1ccc(-c2ncc(F)cn2)cc1 [Compound 2] = 92.1%
• N#CC(C#N)=NNc1ccc2scnc2c1 [Compound 61] = 32.6%
• Cc1cnn(-c2ccc(NN=C(C#N)C#N)cc2)c1 [Compound 36] = 60.6%

====

Experiment: Liver microsomal stability (rat)
Type: in vitro ADME
Conditions: amount of substrate remaining; 1 μM, 0.25 mg/mL microsomes, 37° C., 30 minutes
Please respond with T when measured liver microsomal stability, Rat (%) is strictly beneath 50%, and with F in all other cases.

* N#CC(C#N)=NNc1ccc2nc(NC(=O)c3cnccn3)sc2c1 | F
* N#CC(C#N)=NNc1ccc(-c2ncc(F)cn2)cc1 | F
* Cc1cnc(-c2ccc(NN=C(C#N)C#N)cc2)nc1 | T
* N#CC(C#N)=NNc1ccc2[nH]ncc2c1 | F
* N#CC(C#N)=NNc1ccc2[nH]c(=O)sc2c1 | F
* N#CC(C#N)=NNc1ccc(-c2cnc3ccnn3c2)cc1 | F
* N#CC(C#N)=NNc1ccc(-n2cccn2)cc1 | F
* Cc1ncsc1-c1ccc(NN=C(C#N)C#N)cc1 | T
* Cc1ccnc(-c2ccc(NN=C(C#N)C#N)c(F)c2)n1 | T
* Cn1cc2c(-c3ccc(NN=C(C#N)C#N)cc3)cccc2n1 | F
* Cc1cnn(-c2ccc(NN=C(C#N)C#N)cc2)c1 | T
* N#CC(C#N)=NNc1ccc(-c2ncccn2)cc1 | T

====

Experiment: Pharmacokinetics in SD rat (plasma PK parameters)
Assay type: in vivo
Conditions: SD rat plasma, PO 10 mg/kg
# maps each entry to its Cmax
Measurement Name: Cmax

* N#CC(C#N)=NNc1ccc(-c2ncccn2)cc1 | 1840 ng/mL
* Cn1cc2cc(-c3ccc(NN=C(C#N)C#N)cc3)ccc2n1 | 11400 ng/mL
* Cc1cnc(C(=O)Nc2nc3ccc(NN=C(C#N)C#N)cc3s2)cn1 | 2570 ng/mL
* N#CC(C#N)=NNc1ccc(-c2cnc3ccnn3c2)cc1 | 1330 ng/mL
* Cc1ncc(-c2ccc(NN=C(C#N)C#N)cc2)s1 | 6900 ng/mL

====

Assay: Liver microsomal stability (human)
Type: in vitro ADME
Conditions: amount of substrate remaining; 1 μM, 0.25 mg/mL microsomes, 37° C., 30 minutes
Measurement Name: liver microsomal stability, Human (%)

• Cc1ncc(-c2ccc(NN=C(C#N)C#N)cc2)s1 = 87.5
• Cn1cc2c(-c3ccc(NN=C(C#N)C#N)cc3)cccc2n1 = 70
• Cc1cnc(-c2ccc(NN=C(C#N)C#N)cc2)nc1 = 70.1
• Cc1ccnc(-c2ccc(NN=C(C#N)C#N)c(F)c2)n1 = 55.7
• N#CC(C#N)=NNc1ccc(-c2ncccn2)cc1 = 44.1
• N#CC(C#N)=NNc1ccc2scnc2c1 = 70.4
• Cn1ncc2ccc(NN=C(C#N)C#N)cc21 = 87.4
• N#CC(C#N)=NNc1ccc2nc(NC(=O)c3ccccc3O)sc2c1 = 82.1
• N#CC(C#N)=NNc1cnc2[nH]cc(Cl)c2c1 = 64.1
• COc1cc(-c2nccc(C)n2)ccc1NN=C(C#N)C#N = 53.4
• N#CC(C#N)=NNc1ccc(-c2cnc3ccnn3c2)cc1 = 81.1
• Cc1ncsc1-c1ccc(NN=C(C#N)C#N)cc1 = 52.2
• Cc1cnc(C(=O)Nc2nc3ccc(NN=C(C#N)C#N)cc3s2)cn1 = 83.9
• Cc1cncc(-c2nc3ccc(NN=C(C#N)C#N)cc3s2)c1 = 55
• N#CC(C#N)=NNc1ccc(-c2ncc(F)cn2)cc1 = 92.7
• N#CC(C#N)=NNc1cnc2[nH]ccc2c1 = 86.3
• COc1cnc(-c2ccc(NN=C(C#N)C#N)cc2)nc1 = 80.9
• Cc1cnn(-c2ccc(NN=C(C#N)C#N)cc2)c1 = 65.9
• N#CC(C#N)=NNc1ccc2nc(NC(=O)c3cnccn3)sc2c1 = 74.6
• N#CC(C#N)=NNc1ccc(-n2cccn2)cc1 = 82.2
• CN(C)c1ccc(-c2ccc(NN=C(C#N)C#N)cc2)cc1 = 94.4
• N#CC(C#N)=NNc1ccc2[nH]ncc2c1 = 97.6

====

Assay: Pharmacokinetics in SD rat (plasma PK parameters)
Assay type: in vivo
Details: SD rat plasma, PO 10 mg/kg
Documented half-life across a set of compounds
Measurement Name: half-life (h)

- Cn1cc2cc(-c3ccc(NN=C(C#N)C#N)cc3)ccc2n1: 3.21
- N#CC(C#N)=NNc1ccc(-c2ncccn2)cc1: 1.6
- Cc1ncc(-c2ccc(NN=C(C#N)C#N)cc2)s1: 2.96

====

Tested on: Tau-BiFC cells
Assay: Cytotoxicity (cell survival rate) in tau-BiFC cells
Conditions: group treated with Forskolin alone = 100%
Measurement Name: Cell survival rate (% @ 10 μM) (%)

- N#CC(C#N)=NNc1ccc(-c2ncccn2)cc1F: 88.9
- N#CC(C#N)=NNc1ccc2cn[nH]c2c1: 125.1
- N#CC(C#N)=NNc1ccc(-c2cnc3nccn3c2)cc1: 84.2
- Cc1cnc(-c2ccc(NN=C(C#N)C#N)cc2)nc1: 93.1
- Cc1n[nH]c2cc(NN=C(C#N)C#N)ccc12: 138.5

====

Test: Pharmacokinetics in SD rat (plasma PK parameters)
Assay type: in vivo
Conditions: SD rat plasma, IV 1 mg/kg
Protocol: Specifically, an SD rat of 7 to 8 weeks of age (Core Tech, Hana Trading Co., Ltd.) having a body weight of about 250 g to 300 g was purchased, and was managed in a simple breeding room for small animals set to a temperature of 22° C.±2° C., a relative humidity of 50%±5%, a lighting time of 12 hours (light up at 8:00 A.M., turn off at 8:00 P.M.), and an illuminance of 150 lux to 300 lux. […] The obtained supernatant was analyzed by LC-MS/MS. […]
Recorded half-life by entry
Measurement Name: half-life

* N#CC(C#N)=NNc1ccc(-c2ncccn2)cc1 | 66 min
* N#CC(C#N)=NNc1ccc(-c2ncc(F)cn2)cc1 | 72 min
* Cc1cnc(C(=O)Nc2nc3ccc(NN=C(C#N)C#N)cc3s2)cn1 | 102 min
* N#CC(C#N)=NNc1ccc(-c2cnc3ccnn3c2)cc1 | 114 min

====

Target: CYP1A2 (Homo sapiens)
Construct: human liver microsomes (0.25 mg/mL); from tissue; host or cells: human liver microsomes
Sequence (P05177 whole entry): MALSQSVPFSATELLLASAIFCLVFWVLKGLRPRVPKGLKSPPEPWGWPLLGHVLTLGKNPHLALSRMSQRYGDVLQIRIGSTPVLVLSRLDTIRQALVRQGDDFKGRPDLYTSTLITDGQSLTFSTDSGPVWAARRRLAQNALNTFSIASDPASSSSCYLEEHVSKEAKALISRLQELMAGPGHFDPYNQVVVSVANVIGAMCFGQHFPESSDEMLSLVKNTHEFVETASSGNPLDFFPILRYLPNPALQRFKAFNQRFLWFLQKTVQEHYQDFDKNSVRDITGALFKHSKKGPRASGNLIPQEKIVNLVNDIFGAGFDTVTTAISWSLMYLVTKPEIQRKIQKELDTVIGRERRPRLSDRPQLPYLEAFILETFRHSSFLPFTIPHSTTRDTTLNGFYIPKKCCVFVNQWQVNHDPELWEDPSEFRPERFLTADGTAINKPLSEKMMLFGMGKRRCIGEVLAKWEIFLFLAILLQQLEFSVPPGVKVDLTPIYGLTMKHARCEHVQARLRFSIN
Test: Inhibition of CYP coenzyme activity in human liver microsomes
Type: in vitro ADME
Conditions: compound 10 PM (so in the source); human liver microsomes 0.25 mg/mL; substrate phenacetin; 15 minutes
Label class 0 if inhibition effects of CYP coenzyme activity, CYP1A2 falls below 80; label class 1 in every other case.

- Cc1cncc(-c2nc3ccc(NN=C(C#N)C#N)cc3s2)c1: class 0
- N#CC(C#N)=NNc1ccc(-n2cccn2)cc1: class 1
- Cc1cnn(-c2ccc(NN=C(C#N)C#N)cc2)c1: class 1
- COc1c(NN=C(C#N)C#N)cnc2[nH]ccc12: class 1
- Cc1cncc(C(=O)Nc2nc3ccc(NN=C(C#N)C#N)cc3s2)c1: class 0
- COc1cc(-c2nccc(C)n2)ccc1NN=C(C#N)C#N: class 1
- N#CC(C#N)=NNc1cnc2[nH]cc(Cl)c2c1: class 0
- N#CC(C#N)=NNc1ccc2scnc2c1: class 0
- N#CC(C#N)=NNc1ccc(-c2ncc(F)cn2)cc1: class 1
- CN(C)c1ccc(-c2ccc(NN=C(C#N)C#N)cc2)cc1: class 1
- N#CC(C#N)=NNc1ccc2nc(NC(=O)c3ncccc3O)sc2c1: class 1
- N#CC(C#N)=NNc1ccc(-c2ncccn2)cc1: class 0
- N#CC(C#N)=NNc1ccc2nc(NC(=O)c3ccccc3O)sc2c1: class 0
- Cc1cnc(-c2ccc(NN=C(C#N)C#N)cc2)nc1: class 1
- Cn1cc2c(-c3ccc(NN=C(C#N)C#N)cc3)cccc2n1: class 0
- N#CC(C#N)=NNc1ccc2cn[nH]c2c1: class 0
